assay: Terminal half life in human plasma; format: ADME, cell-free; settings: read-out: beta t1/2
Metric Name: half-life (min)
The response must be a number in min with no trailing unit.

Problem: Reported half-life, molecule O=C(CBr)N1CC([N+](=O)[O-])([N+](=O)[O-])C1 : ____
Result: 27.6

====

tested on: RKO; assay: Antiproliferative activity against human RKO cells assessed as cell growth inhibition by CCK8 assay; assay type: functional, cell-based
Metric Name: IC50 (pM)
I only need the number, in pM, no unit after it.

Problem: Quick one: IC50 for O=C(CBr)N1CC([N+](=O)[O-])([N+](=O)[O-])C1 ?
Result: 3

====

tested on: M21; experiment: Antiproliferative activity against human M21 cells assessed as cell growth inhibition by CCK8 assay; type: functional, cell-based
Metric Name: IC50 (pM)
Form entry: value (pM) — number only.

Problem: State its IC50 on M21: O=C(CBr)N1CC([N+](=O)[O-])([N+](=O)[O-])C1
Result: 2.6
